Test system: human periodontal ligament fibroblasts (HPLF)
Assay: Cytotoxicity, MTT method, HPLF non-malignant cells
Type: cell-based
Conditions: 48 h, mean ± SD
OBSERVABLE: CC50 (µM)
Just the number in µM, nothing appended.

Given the entry N[C@@H](Cc1ccc(N(CCCl)CCCl)cc1)C(=O)O [Melphalan, reference compound] , report its measured CC50.
92

###

Assay: Cytotoxicity, MTT method, HPC non-malignant cells
Assay type: cell-based, human
Conditions: human, pulp cells (HPC), non-malignant, mean ± SD
OBSERVABLE: CC50 at 48 h (µM)
Just the number in µM, nothing appended.

Sample answers from the record:
Given the entry O=C1/C(=C/c2ccccc2)CN(C(=O)C(=O)N2C/C(=C\c3ccccc3)C(=O)/C(=C/c3ccccc3)C2)C/C1=C\c1ccccc1 [Compound 2a] , report its measured CC50 at 48 h.
0.68

Same lookup for O=C1/C(=C/c2ccccc2)CN(C(=O)CC(=O)N2C/C(=C\c3ccccc3)C(=O)/C(=C/c3ccccc3)C2)C/C1=C\c1ccccc1 [Compound 3a] , please.
0.36

Same lookup for Cc1ccc(/C=C2\CN(C(=O)CC(=O)N3C/C(=C\c4ccc(C)cc4)C(=O)/C(=C/c4ccc(C)cc4)C3)C/C(=C\c3ccc(C)cc3)C2=O)cc1 [Compound 3e] , please.
19

Same lookup for COc1ccc(/C=C2\CN(C(=O)CC(=O)N3C/C(=C\c4ccc(OC)c(OC)c4)C(=O)/C(=C/c4ccc(OC)c(OC)c4)C3)C/C(=C\c3ccc(OC)c(OC)c3)C2=O)cc1OC [Compound 3f] , please.
1.6

Same lookup for O=C1/C(=C/c2ccc(Cl)cc2)CN(C(=O)C(=O)N2C/C(=C\c3ccc(Cl)cc3)C(=O)/C(=C/c3ccc(Cl)cc3)C2)C/C1=C\c1ccc(Cl)cc1 [Compound 2c] , please.
78

More entries:
Given the entry O=C1/C(=C/c2ccc(Cl)cc2)CN(C(=O)CC(=O)N2C/C(=C\c3ccc(Cl)cc3)C(=O)/C(=C/c3ccc(Cl)cc3)C2)C/C1=C\c1ccc(Cl)cc1 [Compound 3c] , report its measured CC50 at 48 h.
38

Same lookup for Cc1ccc(/C=C2\CN(C(=O)C(=O)N3C/C(=C\c4ccc(C)cc4)C(=O)/C(=C/c4ccc(C)cc4)C3)C/C(=C\c3ccc(C)cc3)C2=O)cc1 [Compound 2e] , please.
23

Same lookup for O=C1/C(=C/c2ccc(F)cc2)CN(C(=O)C(=O)N2C/C(=C\c3ccc(F)cc3)C(=O)/C(=C/c3ccc(F)cc3)C2)C/C1=C\c1ccc(F)cc1 [Compound 2b] , please.
1.4

Same lookup for COc1cc(/C=C/C(=O)CC(=O)/C=C/c2ccc(O)c(OC)c2)ccc1O [Curcumin, reference compound] , please.
34

Same lookup for O=C1/C(=C/c2ccccc2)CN(CCCN2C/C(=C\c3ccccc3)C(=O)/C(=C/c3ccccc3)C2)C/C1=C\c1ccccc1 [Compound 4] , please.
3.7

Same lookup for COc1cc(/C=C2\CN(C(=O)CC(=O)N3C/C(=C\c4cc(OC)c(OC)c(OC)c4)C(=O)/C(=C/c4cc(OC)c(OC)c(OC)c4)C3)C/C(=C\c3cc(OC)c(OC)c(OC)c3)C2=O)cc(OC)c1OC [Compound 3g] , please.
0.18

Same lookup for O=C1/C(=C/c2ccc(F)cc2)CN(C(=O)CC(=O)N2C/C(=C\c3ccc(F)cc3)C(=O)/C(=C/c3ccc(F)cc3)C2)C/C1=C\c1ccc(F)cc1 [Compound 3b] , please.
3.2

###

Examples of compounds with documented SI (selectivity index) HL-60 follow.
System: human promyelocytic leukemia HL-60 cells
Test: Cytotoxicity, MTT method, HL-60 cells
Assay type: cell-based
Conditions: average CC50 non-malignant cells / CC50 HL-60
I'd appreciate a reply containing only the number, no unit.

Given the entry O=C1/C(=C/c2ccc(F)cc2)CN(C(=O)C(=O)N2C/C(=C\c3ccc(F)cc3)C(=O)/C(=C/c3ccc(F)cc3)C2)C/C1=C\c1ccc(F)cc1 , report its measured SI (selectivity index) HL-60.
40.5

Same lookup for O=C1/C(=C/c2ccc(Cl)c(Cl)c2)CN(C(=O)C(=O)N2C/C(=C\c3ccc(Cl)c(Cl)c3)C(=O)/C(=C/c3ccc(Cl)c(Cl)c3)C2)C/C1=C\c1ccc(Cl)c(Cl)c1 , please.
4.08

Same lookup for O=C1/C(=C/c2ccc(F)cc2)CN(C(=O)CC(=O)N2C/C(=C\c3ccc(F)cc3)C(=O)/C(=C/c3ccc(F)cc3)C2)C/C1=C\c1ccc(F)cc1 , please.
151

Turning now to a further record.
Given the entry Cc1ccc(/C=C2\CN(C(=O)C(=O)N3C/C(=C\c4ccc(C)cc4)C(=O)/C(=C/c4ccc(C)cc4)C3)C/C(=C\c3ccc(C)cc3)C2=O)cc1 , report its measured SI (selectivity index) HL-60.
16.7

###

Examples of compounds with documented CC50 at 48 h follow.
Assay: Cytotoxicity, MTT method, HPLF non-malignant cells
Type: cell-based, human
Settings: human, periodontal ligament fibroblasts (HPLF), non-malignant, mean ± SD
# do not omit the unit; it follows the number

Given the entry O=C1/C(=C/c2ccc(Cl)cc2)CN(C(=O)CC(=O)N2C/C(=C\c3ccc(Cl)cc3)C(=O)/C(=C/c3ccc(Cl)cc3)C2)C/C1=C\c1ccc(Cl)cc1 , report its measured CC50 at 48 h.
45 µM

More entries:
Given the entry O=C1/C(=C/c2ccc(Cl)c(Cl)c2)CN(C(=O)C(=O)N2C/C(=C\c3ccc(Cl)c(Cl)c3)C(=O)/C(=C/c3ccc(Cl)c(Cl)c3)C2)C/C1=C\c1ccc(Cl)c(Cl)c1 , report its measured CC50 at 48 h.
44 µM

Same lookup for O=C1/C(=C/c2ccc(F)cc2)CN(C(=O)C(=O)N2C/C(=C\c3ccc(F)cc3)C(=O)/C(=C/c3ccc(F)cc3)C2)C/C1=C\c1ccc(F)cc1 , please.
1.9 µM

Same lookup for Cc1ccc(/C=C2\CN(C(=O)CC(=O)N3C/C(=C\c4ccc(C)cc4)C(=O)/C(=C/c4ccc(C)cc4)C3)C/C(=C\c3ccc(C)cc3)C2=O)cc1 , please.
35 µM

###

Assay: Cytotoxicity, average over the three human normal cells
Assay type: cell-based
Settings: human, average of HGF, HPC, HPLF; read-out: AVE CC50, human normal cells
Examples of compounds with documented CC50 at 48 h follow.

Given the entry CN(C)c1ccc(/C=C2\CN(C(=O)C(=O)N3C/C(=C\c4ccc(N(C)C)cc4)C(=O)/C(=C/c4ccc(N(C)C)cc4)C3)C/C(=C\c3ccc(N(C)C)cc3)C2=O)cc1 , report its measured CC50 at 48 h.
> 50 µM

Same lookup for COc1ccc(/C=C2\CN(C(=O)C(=O)N3C/C(=C\c4ccc(OC)cc4)C(=O)/C(=C/c4ccc(OC)cc4)C3)C/C(=C\c3ccc(OC)cc3)C2=O)cc1 , please.
> 50 µM

Same lookup for COc1cc(/C=C/C(=O)CC(=O)/C=C/c2ccc(O)c(OC)c2)ccc1O [Curcumin, reference compound] , please.
45.3 µM

###

Test: Cytotoxicity, MTT method, HPLF non-malignant cells
Format: cell-based, human
Details: human, periodontal ligament fibroblasts (HPLF), non-malignant, mean ± SD
OBSERVABLE: CC50 at 48 h (µM)
Just the number in µM, nothing appended.

Given the entry O=C1/C(=C/c2ccc(Cl)cc2)CN(C(=O)C(=O)N2C/C(=C\c3ccc(Cl)cc3)C(=O)/C(=C/c3ccc(Cl)cc3)C2)C/C1=C\c1ccc(Cl)cc1 , report its measured CC50 at 48 h.
89

More entries:
Given the entry COc1ccc(/C=C2\CN(C(=O)CC(=O)N3C/C(=C\c4ccc(OC)c(OC)c4)C(=O)/C(=C/c4ccc(OC)c(OC)c4)C3)C/C(=C\c3ccc(OC)c(OC)c3)C2=O)cc1OC , report its measured CC50 at 48 h.
1.8

###

Examples of compounds with documented SI (selectivity index) HL-60 follow.
System: human promyelocytic leukemia HL-60 cells
Assay: Cytotoxicity, MTT method, HL-60 cells
Format: cell-based
Details: average CC50 non-malignant cells / CC50 HL-60
I'd appreciate a reply containing only the number, no unit.

Given the entry COc1cc(/C=C/C(=O)CC(=O)/C=C/c2ccc(O)c(OC)c2)ccc1O [Curcumin, reference compound] , report its measured SI (selectivity index) HL-60.
5.81

Same lookup for COc1cc(/C=C2\CN(C(=O)CC(=O)N3C/C(=C\c4cc(OC)c(OC)c(OC)c4)C(=O)/C(=C/c4cc(OC)c(OC)c(OC)c4)C3)C/C(=C\c3cc(OC)c(OC)c(OC)c3)C2=O)cc(OC)c1OC [Compound 3g] , please.
6.33

Same lookup for COc1cc(/C=C2\CN(C(=O)C(=O)N3C/C(=C\c4cc(OC)c(OC)c(OC)c4)C(=O)/C(=C/c4cc(OC)c(OC)c(OC)c4)C3)C/C(=C\c3cc(OC)c(OC)c(OC)c3)C2=O)cc(OC)c1OC [Compound 2g] , please.
15.4

Same lookup for O=C1/C(=C/c2ccccc2)CN(C(=O)CC(=O)N2C/C(=C\c3ccccc3)C(=O)/C(=C/c3ccccc3)C2)C/C1=C\c1ccccc1 [Compound 3a] , please.
20.0

Turning now to a further record.
Given the entry COc1ccc(/C=C2\CN(C(=O)CC(=O)N3C/C(=C\c4ccc(OC)c(OC)c4)C(=O)/C(=C/c4ccc(OC)c(OC)c4)C3)C/C(=C\c3ccc(OC)c(OC)c3)C2=O)cc1OC [Compound 3f] , report its measured SI (selectivity index) HL-60.
5.77

Data provenance is paper PMC10821124.
